Reference source for all entries: patent US20260007681A1

Listing: DC50 of selected molecules
- Target Under Test: ER (Homo sapiens (Human), UniProt P03372)
- Sequence (P03372 whole entry): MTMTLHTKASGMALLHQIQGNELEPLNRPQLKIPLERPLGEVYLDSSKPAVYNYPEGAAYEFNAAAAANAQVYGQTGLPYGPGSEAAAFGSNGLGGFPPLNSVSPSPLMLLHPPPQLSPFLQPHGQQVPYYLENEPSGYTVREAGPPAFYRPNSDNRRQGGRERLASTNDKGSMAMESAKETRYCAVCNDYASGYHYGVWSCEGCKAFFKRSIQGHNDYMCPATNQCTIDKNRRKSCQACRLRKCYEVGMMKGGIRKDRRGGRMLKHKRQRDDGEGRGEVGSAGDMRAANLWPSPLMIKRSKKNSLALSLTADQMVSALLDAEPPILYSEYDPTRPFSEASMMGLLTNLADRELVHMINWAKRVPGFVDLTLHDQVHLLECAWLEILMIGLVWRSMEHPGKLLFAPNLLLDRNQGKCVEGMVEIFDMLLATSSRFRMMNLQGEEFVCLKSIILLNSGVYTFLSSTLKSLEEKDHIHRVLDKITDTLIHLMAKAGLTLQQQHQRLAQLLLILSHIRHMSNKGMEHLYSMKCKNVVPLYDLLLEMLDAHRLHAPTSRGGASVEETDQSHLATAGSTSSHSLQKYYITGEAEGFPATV
- Method Notes: In-cell western blot analysis of relative ER percentage (Compounds B1-B278)
- Assay type: cell-based
- Condition Label: ER degradation, 16 hours, read-out: ICW DC50

Below are worked cases with known answers.
{"Molecule": "C[C@@H]1Cc2c([nH]c3ccccc23)[C@@H](c2cnc(N3CCC4(CC(CN5CCN6c7ccc8c(c7OC[C@H]6C5)CN(C5CCC(=O)NC5=O)C8=O)C4)C3)nc2)N1CC(F)F (stereo partly shown)", "Target Under Test": "ER (Homo sapiens (Human), UniProt P03372)", "Metric Name": "DC50", "Test Value": "> 100 nM"}
{"Molecule": "C[C@@H]1Cc2c([nH]c3ccccc23)[C@@H](c2c(F)cc(N3CCC(C(=O)N4CCN5c6ccc7c(c6OC[C@H]5C4)CN(C4CCC(=O)NC4=O)C7=O)CC3)cc2F)N1CC(C)(F)F (mixture of isomers)", "Target Under Test": "ER (Homo sapiens (Human), UniProt P03372)", "Metric Name": "DC50", "Test Value": "10 to 100 nM"}
{"Molecule": "C[C@@H]1Cc2c([nH]c3ccccc23)[C@@H](c2cnc(N3CCC4(CC3)CC(CN3CCN5c6ccc7c(c6OC[C@H]5C3)CN(C3CCC(=O)NC3=O)C7=O)CO4)nc2)N1CC(C)(C)F (stereo partly shown)", "Target Under Test": "ER (Homo sapiens (Human), UniProt P03372)", "Metric Name": "DC50", "Test Value": "< 10 nM"}

## Task Recorded DC50 of C[C@@H]1Cc2c([nH]c3ccccc23)[C@@H](c2cnc(N3CCC4(CC3)CC(CN3CCN5c6ccc7c(c6OC[C@H]5C3)CN(C3CCC(=O)NC3=O)C7=O)CO4)nc2)N1CC(F)(F)CO (stereo partly shown) , please.
## Result > 100 nM
